system: 3D7-strain P. falciparum asexual parasites; assay: P. falciparum asexual growth inhibition assay (Pf GIA); format: cell-based, Plasmodium falciparum; conditions: dose response confirmation; read-out: Pf asexual growth inhibition assays IC50
measurementKind: pIC50
Please express pIC50 as -log10 of the molar concentration.

compound	measuredNumber
CC[C@@]1(O)C(=O)OCc2c1cc1n(c2=O)Cc2c-1nc1cc3c(cc1c2CN1CCOCC1)OCO3.O=C(O)C(F)(F)F	8.15
Cc1[nH]c(C)c(-c2ccc(Oc3ccccc3)cc2)c(=O)c1Br	7.85
CCOc1ccc2[nH]c(C)cc(=NN=Cc3cccnc3)c2c1	6.86
Cc1noc(C)c1-c1ccc2c(Nc3ccc(C(F)(F)F)cc3)c(C(N)=O)cnc2c1.Cl	6.44
O=C(c1cc(-c2ccco2)[nH]n1)N1CCN(S(=O)(=O)c2ccc(Cl)cc2)CC1	6.25
Cc1[nH]c(C)c(-c2ccc(C(=O)c3ccc(Cl)cc3)cc2)c(=O)c1Cl	6.93
CCc1cc2c(Sc3nc4ccccc4[nH]3)ncnc2s1	5.76
Cc1cc2c3c(N)nc(N)nc3ccc2n1C(C)C	8.40

**Query** Annotate the compound O=C(NCC1CC1)C1CCN(C(c2ccc(Cl)cc2)c2ccc(Cl)cc2)CC1 with its measured pIC50.
**Result** 6.52

**Query** State, in one line, measured pIC50 of CCCCN(C)CC#Cc1ccc(-c2ccc3[nH]c(C)c(Br)c(=O)c3c2)cn1
**Result** 5.98

**Query** Look up and state reported pIC50 for COc1ccc2nc(-c3cc(-c4ccc(NC(=O)C(C)C)cc4)cnc3N)[nH]c2c1
**Result** 6.56

**Query** Note down pIC50 recorded for CC(C)(CN)c1cc(-c2ccc(Cl)c(O)c2)c(-c2ccncc2)o1.Cl
**Result** 5.79

**Query** Answer with the recorded pIC50 for the compound listed here: Cc1noc(C)c1-c1ccc2c(Nc3ccc(C#N)cc3)c(C(N)=O)cnc2c1
**Result** 6.22

**Query** Give recorded pIC50. CCOC(=O)[C@H](Cc1cc([N+](=O)[O-])c(Oc2ccc(OC)c(Cc3ccc(OC)c(C(C)C)c3)c2)c([N+](=O)[O-])c1)NC(=O)C(F)(F)F
**Result** 5.02

----------
Quick reference for HepG2 cytoxicity (Pb ODA, this manuscript) among some compounds
Test system: HepG2 cells
Assay: HepG2 cytotoxicity assay
Conditions: HepG2; this manuscript
Description: Briefly, HepG2 cells were seeded onto compound-treated 384 well plates at a density of 2,500 cells per well in Minimal Essential Medium (MEM) plus 10% fetal bovine serum and 1% non-essential amino acids solution (NEAA). […] Cell viability was then measured in a fluorescent plate reader and percent inhibition calculated with respect to positive and negative controls.
Kindly answer with a numeric value in µM, unit omitted.

compound	systemUnderTest	measuredNumber
COc1ccc2nccc([C@@H](O)CN3C4CCC3CC(NCc3ccc5c(n3)NC(=O)CS5)C4)c2n1.Cl (stereo partly drawn)	HepG2 cells	38.90
Oc1c(C(Nc2nc3ccccc3s2)c2ccccc2)ccc2cccnc12 (stereo not drawn)	HepG2 cells	2.34
Cc1[nH]c(C)c(-c2ccc(Oc3ccc(Cl)cc3)cc2)c(=O)c1C	HepG2 cells	8.61
CCC(C(C)C)n1ccc2c3c(N)nc(N)nc3ccc21 (stereo not drawn)	HepG2 cells	0.0017
Nc1nc(N)c2c(ccc3c2ccn3CCCCO)n1	HepG2 cells	0.0759
CC(C)(CN)c1cc(-c2ccc(Cl)c(O)c2)c(-c2ccncc2)o1.Cl	HepG2 cells	20.65
COc1cccc(Cn2ccc3c4c(N)nc(N)nc4ccc32)c1	HepG2 cells	0.0129
COc1ccc2ncc(Cl)c(CCN3CCC(NCc4ccc5c(n4)NC(=O)CS5)CC3)c2c1.Cl	HepG2 cells	15.49

**Query** Consider the compound Cc1[nH]c(C)c(-c2ccc(-c3cccc(Cl)c3)nc2)c(=O)c1Cl and give its recorded HepG2 cytoxicity (Pb ODA, this manuscript).
**Result** 56.23

**Query** Supply HepG2 cytoxicity (Pb ODA, this manuscript) value. Item: Cc1cc(=O)c(-c2cccc(Oc3ccc(Cl)cc3)c2)c(C)[nH]1
**Result** 35.48

**Query** Input CCCC(CCC)n1ccc2c3c(N)nc(N)nc3ccc21.Cl , output reported HepG2 cytoxicity (Pb ODA, this manuscript).
**Result** 0.0017

**Query** Consider the compound COc1ccc2nccc([C@@H](O)CN3CCC(NCc4cc5ccccc5nc4O)CC3)c2c1.Cl and give its recorded HepG2 cytoxicity (Pb ODA, this manuscript).
**Result** 48.98

----------
system: P. berghei ookinete development; assay: microbe, parasite or virus in culture; conditions: Plasmodium berghei, read-out: Pb Ookinete development assay IC50 (µM), dose response confirmation
measurementKind: IC50 (µM)
Lab book: enter the figure in µM, no units written.

**Query** Give the reported IC50 for this compound. CC[C@H]1CN2CCc3cc(OC)c(OC)cc3[C@@H]2C[C@@H]1C[C@H]1NCCc2cc(OC)c(OC)cc21 [TCMDC-125531]
**Result** 0.213

----------
The compounds listed here are annotated with their Unified cytotox.
test system: HepG2 cells; experiment: HepG2 cytotoxicity assay; details: HepG2 cytotoxicity unified across the three screens
Form entry: enter the amount, then its unit.

compound	Unified cytotox
CN(CCCCN)Cc1ccc(-c2ccc(Cl)cc2)cc1	3.77 µM
COc1ccc2nc(-c3ccccc3)cc(NCCCNc3cc(-c4ccccc4)nc4ccc(OC)cc34)c2c1.Cl	38.15 µM
CC(Cc1ccc(C(=O)Nc2ccc(CC(C)NCCc3cccc(Cl)c3)cc2)cc1)NCCc1ccc(C(F)(F)F)cc1 (stereo not shown)	3.71 µM

**Query** Indicate its recorded Unified cytotox; the compound in question is CN1CCN(CCCNCc2cccc(Nc3nccc(Nc4ccc(Oc5ccccc5)cc4)n3)c2)CC1
**Result** 4.92 µM

----------
test system: HepG2 cells; assay: HepG2 cytotoxicity assay; conditions: HepG2 cytotoxicity listed with the Pb ODA data set (this manuscript)
measurementKind: Pb ODA (this manuscript) HepG2 cytoxicity
Reply with the number and its unit after it.

Answered cases to consult:
smilesStr	result
COc1ccc2nccc([C@@H](O)CN3CCC(NCc4ccc5c(c4)NC(=O)CO5)CC3)c2c1.Cl	28.18 µM
Cc1nc2nc(N)nc(N)c2c(C)c1Cc1ccccc1.Cl	0.03 µM

**Query** Given Cc1[nH]c(C)c(-c2ccc(C(=O)c3ccc(Cl)cc3)cc2)c(=O)c1Cl , respond with its Pb ODA (this manuscript) HepG2 cytoxicity.
**Result** 100.00 µM

**Query** Could you please provide reported Pb ODA (this manuscript) HepG2 cytoxicity for Cc1nc(C)c(-c2ccc(Oc3ccc(OC(F)(F)F)cc3)cc2)c(OC(=O)c2ccccc2)c1Cl ? Thanks!
**Result** 37.58 µM

----------
system: HepG2 cells; assay: HepG2 cytotoxicity assay; details: read-out: HepG2 cytotoxicity assay IC50; dose response confirmation
Documented pIC50 across a set of compounds
Note: pIC50 values are expressed as the negative base-10 logarithm of concentration in M.

Solved cases (5 shown):
compound	pIC50
O=C(c1cccs1)N1CCN(c2ccc([N+](=O)[O-])c(NC3CC3)c2)CC1	4.00
Cl.O=C(NC1CCN(CC2(c3ccc(Cl)cc3)CCCCC2)CC1)c1cc[nH]n1	4.45
Cc1[nH]c(C)c(-c2ccc(-c3ccccc3F)nc2)c(=O)c1Cl	4.00
Cc1[nH]c(C)c(-c2ccc(OCc3ccc(OC(F)(F)F)cc3)nc2)c(=O)c1Br	4.06
Cc1ccc(C2=NNC3(S2)C(=O)N(C)c2ccccc23)cc1 (stereo not drawn)	4.24

**Query** Annotate the compound OCCc1ccc(Nc2nccc(-c3nnc4ccccn34)n2)cc1 with its measured pIC50.
**Result** 4.00

**Query** Using known records, supply pIC50 for Cc1[nH]c(C)c(-c2ccc(Nc3ccc(C(F)(F)F)cn3)cc2)c(=O)c1Br
**Result** 6.01

**Query** Determine from records and report pIC50 for Cc1noc(C)c1-c1ccc2c(Nc3ccc(C#N)cc3)c(C(N)=O)cnc2c1
**Result** 4.16

**Query** Fill in reported pIC50 for this entry: COc1ccc2c(=O)c3ccc(OC)cc3[nH]c2c1
**Result** 4.00

**Query** Give reported pIC50 value for Cl.c1ccc2c(NCCCCCCCCCNc3c4ccccc4nc4ccccc34)c3ccccc3nc2c1
**Result** 5.26

**Query** Fill in pIC50 for record O=C1C(c2ccccc2)=C(Nc2cccc(OC(F)(F)C(F)F)c2)c2ccccc21
**Result** 4.00

**Query** Specify pIC50 for COc1ccc(Cl)cc1NC(=O)CN(C)C(=O)c1cnn(-c2ccccc2)n1 and stop.
**Result** 4.00

**Query** Recall and state the measured pIC50 for O=C(NCC1CC1)C1CCN(C(c2ccc(Cl)cc2)c2ccc(Cl)cc2)CC1 .
**Result** 4.00

**Query** Provide measured pIC50 value, entry: CCCC(CCC)n1ccc2c3c(N)nc(N)nc3ccc21.Cl
**Result** 8.77

Attribution: paper PMC6753678
